Data origin, for the record: paper PMC5819854

For each entry below, report its Ki value.
molecular target: human κOR (Homo sapiens); assay: biochemical; format: binding
Sequence (P41145 whole entry): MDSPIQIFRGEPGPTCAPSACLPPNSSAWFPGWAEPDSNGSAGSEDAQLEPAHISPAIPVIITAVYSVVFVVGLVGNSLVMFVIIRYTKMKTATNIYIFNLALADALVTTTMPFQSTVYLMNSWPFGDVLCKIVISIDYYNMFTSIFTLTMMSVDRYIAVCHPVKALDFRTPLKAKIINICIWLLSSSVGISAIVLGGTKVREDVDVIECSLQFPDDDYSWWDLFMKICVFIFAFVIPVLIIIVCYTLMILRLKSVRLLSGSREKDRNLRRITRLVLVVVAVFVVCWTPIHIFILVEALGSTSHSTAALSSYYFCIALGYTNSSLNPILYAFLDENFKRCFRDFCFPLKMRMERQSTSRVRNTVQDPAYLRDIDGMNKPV
Numbers only, in µM.

CN(C)C1(CNC(=O)/N=N/c2ccc(F)cc2)CCCCC1 ... 3.1
Cc1cc(/N=N/C(=O)NCC2(N(C)C)CCCCC2)ccc1F ... 4.8
Cc1cc(F)ccc1/N=N/C(=O)NCC1(N(C)C)CCCCC1 ... 6.1

Alright, here's another compound for you.
Qu. Query: Ki; subject: `COc1cc(F)ccc1/N=N/C(=O)NCC1(N(C)C)CCCCC1`
Ans. 7.2

----------
For each entry below, report its pKi value.
biological target: UniProt:P35372; test: biochemical; assay type: binding
Sequence (P35372 whole entry): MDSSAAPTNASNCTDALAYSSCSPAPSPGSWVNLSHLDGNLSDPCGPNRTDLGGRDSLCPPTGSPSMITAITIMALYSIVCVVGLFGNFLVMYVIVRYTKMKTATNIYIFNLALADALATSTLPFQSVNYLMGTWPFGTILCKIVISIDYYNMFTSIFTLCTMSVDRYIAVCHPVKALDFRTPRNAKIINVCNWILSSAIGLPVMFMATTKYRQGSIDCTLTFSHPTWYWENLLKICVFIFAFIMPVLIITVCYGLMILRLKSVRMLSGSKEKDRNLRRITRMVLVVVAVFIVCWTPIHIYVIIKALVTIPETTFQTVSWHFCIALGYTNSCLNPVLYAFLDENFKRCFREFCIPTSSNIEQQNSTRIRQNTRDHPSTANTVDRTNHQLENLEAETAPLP
Numbers only, as −log10 of the molar value.

CN(C)C1(CNC(=O)/N=N/c2ccc(F)cc2)CCCCC1 ... 5.60

For every record below, what is its pKi?
1. Cc1cc(F)ccc1/N=N/C(=O)NCC1(N(C)C)CCCCC1
2. Cc1cc(/N=N/C(=O)NCC2(N(C)C)CCCCC2)ccc1F
3. COc1cc(F)ccc1/N=N/C(=O)NCC1(N(C)C)CCCCC1

Ans.
1. 5.31
2. 5.96
3. 5.13
